Target: cloned human kappa receptor (Homo sapiens, UniProt P41145)
Sequence (P41145 whole entry): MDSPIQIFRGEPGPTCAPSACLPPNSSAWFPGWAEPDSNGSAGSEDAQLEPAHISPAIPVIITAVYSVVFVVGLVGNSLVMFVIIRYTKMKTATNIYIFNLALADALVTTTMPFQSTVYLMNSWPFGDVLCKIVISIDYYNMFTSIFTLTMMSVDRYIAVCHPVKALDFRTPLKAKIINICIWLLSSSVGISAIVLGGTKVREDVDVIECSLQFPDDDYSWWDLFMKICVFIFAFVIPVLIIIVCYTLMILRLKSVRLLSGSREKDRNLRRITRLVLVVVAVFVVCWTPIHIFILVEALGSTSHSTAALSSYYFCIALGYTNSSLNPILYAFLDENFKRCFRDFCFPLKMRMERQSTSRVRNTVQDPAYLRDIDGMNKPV
Test: [3H]U69593 (agonist) binding to the cloned human kappa receptor
Conditions: Ki, nM 3H-U-69,593
Counter-ions that a name gives are not always drawn.
# Ki per entry
Give the number; nM is assumed, so skip it.

Consider the following illustrative entries.
molecule	obs.value
CC(=O)N1CCN(C(=O)Cc2ccccc2C(F)(F)F)C(CN2CCCC2)C1 (racemic) [(R,S-10c), hydrochloride]	16
Cc1ccc(S(=O)(=O)N2CCN(C(=O)Cc3ccc(Cl)c(Cl)c3)[C@H](CN3CCCC3)C2)cc1 [(R-3l), hydrochloride]	6.2
Cl.NC(=O)N1CCN(C(=O)Cc2ccc(Cl)c(Cl)c2)[C@H](CN2CCCC2)C1 [(R-3i), hydrochloride]	2.9
CC(=O)N1CCN(C(=O)Cc2cccc([N+](=O)[O-])c2)C(CN2CCCC2)C1 (racemic) [(R,S-10d), hydrochloride]	0.72

[in] Form field: reported Ki of Cl.O=C(Cc1ccc(Cl)c(Cl)c1)N1CCN(Cc2ccccc2)C[C@H]1CN1CCCC1 [(R-1), hydrochloride]
[out] 9.3

[in] Form field: reported Ki of CC(=O)N1CCN(C(=O)Cc2ccc(S(C)(=O)=O)cc2)C(CN2CCCC2)C1 (racemic) [(R,S-10a), hydrochloride]
[out] 2.3

[in] Form field: reported Ki of CC(=O)N1CCN(C(=O)Cc2ccccc2[N+](=O)[O-])C(CN2CCCC2)C1 (racemic) [(R,S-10e), hydrochloride]
[out] 24

[in] Form field: reported Ki of Cl.O=CN1CCN(C(=O)Cc2ccc(Cl)c(Cl)c2)[C@H](CN2CCCC2)C1 [(R-3j), hydrochloride]
[out] 0.4

[in] Form field: reported Ki of CC(=O)N1CCN(C(=O)Cc2ccc([N+](=O)[O-])cc2)C(CN2CCCC2)C1 (racemic) [(R,S-10f), hydrochloride]
[out] 2.4
